# METHOD SUMMARY: PK study of liposomal ketamine formulation and free ketamine after single subcutaneous injection
# RECORDED CONDITIONS: female, Sprague-Dawley, rat, plasma, sc, 5 mg/kg
# Protocol: Blood samples were collected at 15 min, 0.5, 1, 2, 4, 6, 8, 24 and 48 hours post-injection.
Counter-ions that a name gives are not always drawn.
REPORTED METRIC: AUC(0-inf) (ng·h/mL)
Enter your answer as a number in ng·h/mL; do not include the unit.

Lookup: Please report the measured AUC(0-inf) for CNC1(c2ccccc2Cl)CCCCC1=O (stereo not shown) [Free Ketamine, ketamine hydrochloride]
Found: 314

* * *

# METHOD SUMMARY: PK study of liposomal ketamine formulation and free ketamine after single subcutaneous injection
# RECORDED CONDITIONS: female, Sprague-Dawley, rat, plasma, sc, 5 mg/kg
Counter-ions that a name gives are not always drawn.
REPORTED METRIC: half-life (min)
Report as a plain number; the unit min is understood.

Lookup: Hello, please tell me recorded half-life for this one: CNC1(c2ccccc2Cl)CCCCC1=O (stereo not shown) [Free Ketamine, ketamine hydrochloride]
Found: 46.2
